target: Nobo (Anopheles gambiae, UniProt Q8WQJ5); construct: gene GSTe8; experiment: spectrophotometric specific activity of purified enzyme; assay type: biochemical
Sequence (Q8WQJ5 1-217): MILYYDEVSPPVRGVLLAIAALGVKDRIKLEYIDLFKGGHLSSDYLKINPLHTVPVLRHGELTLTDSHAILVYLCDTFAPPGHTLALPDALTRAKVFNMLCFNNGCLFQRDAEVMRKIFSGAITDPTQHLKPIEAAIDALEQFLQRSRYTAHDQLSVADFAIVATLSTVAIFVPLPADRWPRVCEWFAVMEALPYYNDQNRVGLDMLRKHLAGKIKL
# specific activity values compiled below

compound: S=C=NCCc1ccccc1 [PEITC, phenethyl isothiocyanate]
specific activity: 0.4 ± 0.1 μmol/min per mg
//
compound: O=[N+]([O-])c1ccc(Cl)c([N+](=O)[O-])c1 [CDNB, 1-chloro-2,4-dinitribenzene]
specific activity: 24.7 ± 3.4 μmol/min per mg

Any idea what specific activity was measured for O=[N+]([O-])c1ccc(Cl)c(Cl)c1 [DCNB, 1,2-dichloro-4-nitrobenzene] ? 16.4 ± 1.9 μmol/min per mg

Any idea what specific activity was measured for C=CCN=C=S [AITC, allyl isothiocyanate] ? 3.3 ± 0.4 μmol/min per mg

Please report the recorded specific activity for CC(C)(OO)c1ccccc1 [CuOOH, cumene hydroperoxide] . 5.0 ± 0.5 μmol/min per mg
